Target: recombinant human Meningioma Expressed Antigen 5 (MGEA5), also referred to as O-GlcNAcase (OGA) (Homo sapiens)
Construct: Full length OGA enzyme was purchased at OriGene (cat #TP322411); purchased OriGene TP322411
Assay: OGA biochemical assay (inhibition of FM-GlcNAc hydrolysis, fluorescence)
Conditions: FM-GlcNAc substrate, maximal effect
From the text: The assay is based on the inhibition of the hydrolysis of fluorescein mono-β-D-N-Acetyl-Glucosamine (FM-GlcNAc) (Mariappa et al. 2015, Biochem J 470:255) by the recombinant human Meningioma Expressed Antigen 5 (MGEA5), also referred to as O-GlcNAcase (OGA). […] The fluorescence of the latter can be measured at excitation wavelength 485 nm and emission wavelength 538 nm. An increase in enzyme activity results in an increase in fluorescence signal. […]
Metric name: Enzymatic Emax (%)

// below: answered compounds
Compound: CC(c1cc2c(cc1F)OCCO2)N1CC[C@H](Cc2ncc(F)cc2F)C1 (single isomer, unassigned) [Product 28]
Metric name: Enzymatic Emax (%)
Meas value: 67

Compound: Cc1cc(OC[C@]2(C)CCN([C@H](C)c3ccc4c(n3)OCCO4)C2)cc(C)n1 (single isomer, unassigned) [Product 100]
Metric name: Enzymatic Emax (%)
Meas value: 87

Compound: Cc1cc(C[C@@H]2CCN(C(C)c3cnc4c(c3)OCCO4)C2)cc(C)n1 (single isomer, unassigned) [Product 35]
Metric name: Enzymatic Emax (%)
Meas value: 54

Compound: Cc1cnc(C[C@H]2CCN(C(C)c3cc4c(cc3F)OCCO4)C2)c(C)n1 (single isomer, unassigned) [Product 98]
Metric name: Enzymatic Emax (%)
Meas value: 103

1: COc1cc(C[C@H]2CCN(C(C)c3nc4c(cc3F)CCO4)C2)cc(C)n1 (single isomer, unassigned) [Product 85]
2: Cc1cc(OC[C@]2(C)CCN([C@H](C)c3ccc4c(n3)OCCO4)C2)cc(C)n1 (single isomer, unassigned) [Product 101]
Query: I need your help: which of the pair 1 , 2 has higher Enzymatic Emax (%)? Selection: enter the item's label.
Result: 1

---

Biological target: recombinant human Meningioma Expressed Antigen 5 (MGEA5), also referred to as O-GlcNAcase (OGA) (Homo sapiens, UniProt O60502)
Construct: Full length OGA enzyme was purchased at OriGene (cat #TP322411); purchased OriGene TP322411
Assay: OGA biochemical assay (inhibition of FM-GlcNAc hydrolysis, fluorescence)
Settings: FM-GlcNAc substrate, 6 h at room temperature, read-out: Enzymatic hOGA, pIC50 (converted)
Metric name: IC50 (µM)

P: COc1cc(C[C@@H]2CCN(C(C)c3nc4c(cc3F)OCCO4)C2)cc(C)n1 (mixture of isomers)
Q: Cc1cc(OC[C@@H]2CCN(C(C)c3nc4c(cc3F)OCCO4)C2)cc(C)n1 (stereo partly drawn)
Query: Quick one: lower IC50, P or Q ? Selection: enter the item's label.
Result: P

---

Target: recombinant human Meningioma Expressed Antigen 5 (MGEA5), also referred to as O-GlcNAcase (OGA) (Homo sapiens, UniProt O60502)
Construct: Full length OGA enzyme was purchased at OriGene (cat #TP322411); purchased OriGene TP322411
Assay: OGA biochemical assay (inhibition of FM-GlcNAc hydrolysis, fluorescence)
Conditions: FM-GlcNAc substrate, 6 h at room temperature, read-out: Enzymatic hOGA, pIC50 (converted)
Excerpt: The assay is based on the inhibition of the hydrolysis of fluorescein mono-β-D-N-Acetyl-Glucosamine (FM-GlcNAc) (Mariappa et al. 2015, Biochem J 470:255) by the recombinant human Meningioma Expressed Antigen 5 (MGEA5), also referred to as O-GlcNAcase (OGA). […] The fluorescence of the latter can be measured at excitation wavelength 485 nm and emission wavelength 538 nm. An increase in enzyme activity results in an increase in fluorescence signal. […]
Metric name: IC50 (nM)

// below: answered compounds
Compound: Cc1ncc(O[C@@H]2CCN(C(C)c3ccc4c(n3)OCCO4)C2)cn1 (stereo partly drawn) [Product 62]
Endpoint unit: nM
Meas value: 2510

Compound: Cc1cc(C[C@H]2CCN(C(C)c3ccc4c(n3)OCCO4)C2)cc(C)n1 (stereo partly drawn) [Product 12]
Endpoint unit: nM
Meas value: 158

Compound: Cc1cc(C[C@@H]2CCN([C@H](C)c3ccc4c(n3)OCCO4)C2)cc(C)n1 (single isomer, unassigned) [Product 105]
Endpoint unit: nM
Meas value: 794

Compound: Cc1cc(CO[C@H]2CCN(C(C)c3ccc4c(n3)OCCO4)C2)cc(C)n1 (stereo partly drawn) [Product 49]
Endpoint unit: nM
Meas value: 5010

Compound: Cc1cc(C[C@H]2CN(C(C)c3ccc4c(n3)OCCO4)C[C@@H]2C)cc(C)n1 (mixture of isomers) [Product 61]
Endpoint unit: nM
Meas value: 126

Compound: Cc1cc(C[C@H]2CCN(C(C)c3ccc4c(c3)OCC4)C2)cc(C(F)(F)F)n1 (stereo partly drawn) [Product 6]
Endpoint unit: nM
Meas value: 79.4

Compound: Cc1cc(O[C@@H]2CCN(C(C)c3nc4c(cc3F)CCO4)C2)cc(C)n1 (single isomer, unassigned) [Product 19]
Endpoint unit: nM
Meas value: 1.58

Compound: Cc1cc(C[C@@H]2CCN([C@@H](C)c3cc4c(cc3F)OCCO4)C2)cc(C)n1 [Product 45]
Endpoint unit: nM
Meas value: 5.01

Compound: COc1cc(C[C@H]2CCN(C(C)c3cc4c(cc3F)OCCO4)C2)cc(C)n1 (single isomer, unassigned) [Product 10]
Endpoint unit: nM
Meas value: 1580

Compound: CC(c1cc2c(cc1F)OCCO2)N1CC[C@H](Cc2ncc(F)cc2F)C1 (single isomer, unassigned) [Product 29]
Endpoint unit: nM
Meas value: 50.1

1: Cc1cc(C[C@@H]2CCN(C(C)c3cnc4c(c3)OCCO4)C2)cc(C)n1 (mixture of isomers) [Product 116]
2: Cc1cc(C[C@H]2CCN(C(C)c3cc4c(cc3F)OCCO4)C2)cc(C)n1 (stereo partly drawn) [Product 30]
Query: Quick one: lower IC50, 1 or 2 ? Selection: enter the item's label.
Result: 2

a: COc1cc(C[C@H]2CCN(C(C)c3ccc4c(n3)OCCC4)C2)cc(C)n1 (mixture of isomers) [Product 86]
b: Cc1cc(C[C@@H]2CCN([C@H](C)c3cc4c(cc3F)OCCO4)C2)cc(C)n1 [Product 44]
c: Cc1cc(O[C@@H]2CCN(C(C)c3ccc4c(n3)OCCO4)C2)cc(C)n1 (mixture of isomers) [Product 73]
Query: Write the entries in order, lowest recorded IC50 first. Form entry: labels listed in requested order.
Result: c, a, b

---

Biological target: OGA (Homo sapiens, UniProt O60502)
Construct: endogenous in cells; host or cells: HEK293 cells inducible for P301L mutant human Tau (isoform 2N4R)
Experiment: OGA cellular assay (ICC detection of O-GlcNAcylated proteins in HEK293 cells inducible for P301L mutant human Tau)
Assay type: cell-based
Settings: HEK293, HEK293 cells inducible for P301L mutant human Tau; maximum defined by Thiamet G at 200 uM
Metric name: Emax (%)

1: Cc1cc(C[C@H]2CN(C(C)c3ccc4c(n3)OCCO4)C[C@@H]2C)cc(C)n1 (mixture of isomers) [Product 60]
2: COc1cc(OC[C@@H]2CCN(C(C)c3ccc4c(n3)OCCO4)C2)cc(C)n1 (some centres unmarked) [Product 48]
3: Cc1cc(C[C@@H]2CCN(C(C)c3nc4c(cc3F)OCCO4)C2)cc(C)n1 (mixture of isomers) [Product 79]
Query: Sort the entries above numerically by Emax, high end first. Form entry: labels listed in requested order.
Result: 3, 1, 2
(3: 85%, 1: 44%, 2: 1%)

---

Biological target: recombinant human Meningioma Expressed Antigen 5 (MGEA5), also referred to as O-GlcNAcase (OGA) (Homo sapiens)
Construct: Full length OGA enzyme was purchased at OriGene (cat #TP322411); purchased OriGene TP322411
Assay: OGA biochemical assay (inhibition of FM-GlcNAc hydrolysis, fluorescence)
Conditions: FM-GlcNAc substrate, maximal effect, read-out: Enzymatic Emax (%)
Metric name: Emax (%)

// below: answered molecules
Molecule: Cc1cc(C[C@H]2CCN(C(C)c3ccc4c(c3)OCCN4C)C2)cc(C)n1 (some centres unmarked)
Metric name: Emax
Meas value: 85
//
Molecule: COc1cc(C[C@]2(C)CCN([C@H](C)c3ccc4c(n3)OCCO4)C2)cc(C)n1 (single isomer, unassigned)
Metric name: Emax
Meas value: 63
//
Molecule: COc1cc(C[C@@H]2CCN([C@@H](C)c3cc4c(cc3F)OCCO4)C2)cc(C)n1
Metric name: Emax
Meas value: 102
//
Molecule: Cc1cc(C[C@H]2CCN([C@@H](C)c3cc4c(cc3F)OCCO4)C2)cc(C)n1
Metric name: Emax
Meas value: 101
//
Molecule: Cc1cc(C[C@H]2CCN(C(C)c3ccc4c(n3)OCCO4)C2)cc(C)n1 (some centres unmarked)
Metric name: Emax
Meas value: 101

a: Cc1cc(C[C@H]2CCN([C@H](C)c3cc4c(cc3F)OCCO4)C2)cc(C)n1
b: COc1cc(C[C@@H]2CN([C@H](C)c3ccc4c(n3)OCCO4)C[C@H]2C)cc(C)n1 (stereo in doubt)
Query: I need your help: which of the pair a , b has higher Emax? Selection: enter the item's label.
Result: a

The values you see were collected from patent US20210277015A1.
